Entry source: ChEMBL document CHEMBL3352532

Assay: Lipophilicity, log P of the compound by UV spectroscopy
Format: physicochemical
Conditions: octanol/water
quantity: logP
No unit in the answer, please; the number alone is enough.

Some entries whose results are on file:
- compound: "O=C(CNC(=O)c1ccccc1)NN1C(=O)CSC1c1cccc(Cl)c1 (stereo not given)"
  quantity: "logP"
  recordedMeasurement: 2.8
- compound: "COc1ccc(C2SCC(=O)N2NC(=O)CNC(=O)c2ccccc2)cc1 (stereo not given)"
  quantity: "logP"
  recordedMeasurement: 1.85
- compound: "COc1ccc(C2SCC(=O)N2NC(=O)CNC(=O)c2ccccc2)cc1OC (stereo not given)"
  quantity: "logP"
  recordedMeasurement: 1.85

**Query** Given the compound O=C(CNC(=O)c1ccccc1)NN1C(=O)CSC1c1ccccc1Cl (stereo not given) , write its reported logP.
**Result** 2.3

**Query** Given the compound O=C(CNC(=O)c1ccccc1)NN1C(=O)CSC1c1ccccc1 (stereo not given) , write its reported logP.
**Result** 1.95

###

Assay: Lipophilicity, log P of the compound by UV spectroscopy
Type: physicochemical
Conditions: octanol/water
quantity: logP
No unit in the answer, please; the number alone is enough.

- compound: "O=C(CNC(=O)c1ccccc1)NN1C(=O)CSC1c1ccc(Cl)cc1 (stereo not given)"
  quantity: "logP"
  recordedMeasurement: 2.87
- compound: "COc1cc(C2SCC(=O)N2NC(=O)CNC(=O)c2ccccc2)cc(OC)c1OC (stereo not given)"
  quantity: "logP"
  recordedMeasurement: 1.65
- compound: "O=C(CNC(=O)c1ccccc1)NN1C(=O)CSC1c1c[nH]c2ccccc12 (stereo not given)"
  quantity: "logP"
  recordedMeasurement: 1.7
- compound: "O=C(CNC(=O)c1ccccc1)NN1C(=O)CSC1c1ccc(F)cc1 (stereo not given)"
  quantity: "logP"
  recordedMeasurement: 2.1

# context switch: different compound, same logP
**Query** Given the compound O=C(CNC(=O)c1ccccc1)NN1C(=O)CSC1c1ccc(O)cc1 (stereo not given) , write its reported logP.
**Result** 1.75

###

The following compounds are shown together with reported TD50 at 0.5 h values.
Assay: Neurotoxicity in ip dosed Swiss CF1 mouse assessed as induction of motor impairment measured after 0.5 hrs by rotorod test
Format: toxicity, organism-based
Conditions: in vivo, read-out: MTD50
# number only, unit mg/kg dropped from output

**Query** Given the compound COc1ccc(C2SCC(=O)N2NC(=O)CNC(=O)c2ccccc2)cc1 (stereo unspecified) , write its reported TD50 at 0.5 h.
**Result** 300

**Query** Given the compound O=C(CNC(=O)c1ccccc1)NN1C(=O)CSC1c1cccc(Cl)c1 (stereo unspecified) , write its reported TD50 at 0.5 h.
**Result** 30

**Query** Given the compound COc1cc(C2SCC(=O)N2NC(=O)CNC(=O)c2ccccc2)cc(OC)c1OC (stereo unspecified) , write its reported TD50 at 0.5 h.
**Result** 100

**Query** Given the compound O=C(CNC(=O)c1ccccc1)NN1C(=O)CSC1c1ccccc1Cl (stereo unspecified) , write its reported TD50 at 0.5 h.
**Result** 100

**Query** Given the compound O=C(CNC(=O)c1ccccc1)NN1C(=O)CSC1c1ccccc1 (stereo unspecified) , write its reported TD50 at 0.5 h.
**Result** 100

**Query** Given the compound O=C(CNC(=O)c1ccccc1)NN1C(=O)CSC1c1c[nH]c2ccccc12 (stereo unspecified) , write its reported TD50 at 0.5 h.
**Result** 300

###

Tested on: Mus musculus
Assay: Behavioral activity in Swiss CF1 mouse assessed as activity score at 100 mg/kg, ip measured after 0.5 hrs post dose by actophotometry
Assay type: organism-based
Set-up: dose 100 mg/kg, route intraperitoneal
Details: in vivo
The following compounds are shown together with reported Activity values.
No unit in the answer, please; the number alone is enough.

Some entries whose results are on file:
- compound: "O=C(CNC(=O)c1ccccc1)NN1C(=O)CSC1c1cccc(Cl)c1 (stereo not given)"
  quantity: "Activity"
  recordedMeasurement: 102.6
- compound: "O=C(CNC(=O)c1ccccc1)NN1C(=O)CSC1c1ccc(F)cc1 (stereo not given)"
  quantity: "Activity"
  recordedMeasurement: 64.6
- compound: "O=C(CNC(=O)c1ccccc1)NN1C(=O)CSC1c1ccc(O)cc1 (stereo not given)"
  quantity: "Activity"
  recordedMeasurement: 38.2

# context switch: different compound, same Activity
**Query** Fetch value of Activity on Mus musculus for COc1ccc(C2SCC(=O)N2NC(=O)CNC(=O)c2ccccc2)cc1OC (stereo not given) .
**Result** 42

###

Test system: Mus musculus
Test: Behavioral activity in Swiss CF1 mouse assessed as activity score at 100 mg/kg, ip measured after 0.5 hrs post dose by actophotometry
Type: organism-based
Set-up: dose 100 mg/kg, route intraperitoneal
Details: in vivo
Returns y if the recorded Activity is greater than or equal to 90, and n otherwise.

Answered cases to consult:
- compound: "O=C(CNC(=O)c1ccccc1)NN1C(=O)CSC1c1ccc(Cl)cc1 (stereo unspecified)"
  testedTarget: "Mus musculus"
  qualitativeLabel: "y"
- compound: "COc1ccc(C2SCC(=O)N2NC(=O)CNC(=O)c2ccccc2)cc1 (stereo unspecified)"
  testedTarget: "Mus musculus"
  qualitativeLabel: "n"
- compound: "O=C(CNC(=O)c1ccccc1)NN1C(=O)CSC1c1ccccc1Cl (stereo unspecified)"
  testedTarget: "Mus musculus"
  qualitativeLabel: "y"
- compound: "O=C(CNC(=O)c1ccccc1)NN1C(=O)CSC1c1ccccc1 (stereo unspecified)"
  testedTarget: "Mus musculus"
  qualitativeLabel: "n"

// next entry
**Query** Please indicate if the recorded Activity for O=C(CNC(=O)c1ccccc1)NN1C(=O)CSC1c1c[nH]c2ccccc12 (stereo unspecified) meets or exceeds 90.
**Result** y
